Values compiled from patent US20240408119A1.

# assay_protocol: Metabolic Stability in Human Hepatocytes
# Type: in vitro ADME
# reported_conditions: cryopreserved human hepatocytes, 37° C.
reported_endpoint: hepatocyte CLint (µL/min/1e6 cells)

compound	reported_endpoint	value_measured
COc1ccc([C@@]23CCC(=O)C[C@@H]2N(C)CC3)cc1OC (racemic) [Compound 001, reference compound]	hepatocyte CLint	40

----------
# assay_protocol: in vivo
# Assay type: in vivo, mouse
# reported_conditions: male, C57BL/6, mouse, in vivo; 321 after 321 IV 2 mg/kg; read-out: Brain-Kp
reported_endpoint: Kp

compound	reported_endpoint	value_measured
COc1ccc([C@@]23CCC(OP(=O)(OC(C)C)OC(C)C)=C[C@@H]2N(C)CC3)cc1OC [Compound 321]	Kp	0.28

----------
Entries annotated with measured Mouse Plasma Prodrug (%)
# Type: in vitro ADME, mouse
# reported_conditions: prodrug remaining, 5 μM, 37° C., 60 min

record_smiles	censoring_operator	Mouse Plasma Prodrug (%)
COc1ccc([C@@]23CCC(OP(=O)(O)O)=C[C@@H]2N(C)CC3)cc1OC	=	79.0
COc1ccc([C@@]23CCC(OP(=O)(Oc4ccccc4)Oc4ccccc4)=C[C@@H]2N(C)CC3)cc1OC	=	30.7
CCN(C)C(=O)OC1=C[C@@H]2N(C)CC[C@]2(c2ccc(OC)c(OC)c2)CC1	>	99
COc1ccc([C@@]23CCC(OC(=O)N4CCN(C)CC4)=C[C@@H]2N(C)CC3)cc1OC	>	99

----------
# assay_protocol: in vivo
# Type: in vivo, mouse
# reported_conditions: male, C57BL/6, mouse, in vivo, iv, 2 mg/kg, 321 in brain after 321 IV 2 mg/kg; read-out: Vss

record_smiles	Vd / L/kg
COc1ccc([C@@]23CCC(OP(=O)(OC(C)C)OC(C)C)=C[C@@H]2N(C)CC3)cc1OC	10.3

----------
# assay_protocol: in vivo
# Format: in vivo, mouse
# reported_conditions: male, C57BL/6, mouse, in vivo; 323 after 323 IV 2 mg/kg, 0.25 h; read-out: Plasma concentrations (mean)
# Protocol: Total fifteen male mice were used in this study with n=3 mice/time point with sparse sampling study design. Animals were administered through intravenous route with solution formulation of 323 at 2 mg/kg dose. […]

molecule	concentration at 0.25 h
COc1ccc([C@@]23CCC(OP4(=O)OCC(C)(C)CO4)=C[C@@H]2N(C)CC3)cc1OC [Compound 323]	91.6 ng/mL

----------
# assay_protocol: in vivo
# Type: in vivo, mouse
# reported_conditions: male, C57BL/6, mouse, in vivo; 323 after 323 IV 2 mg/kg, 0.08 h; read-out: Plasma concentrations (mean)

record_smiles	concentration at 0.08 h / ng/mL
COc1ccc([C@@]23CCC(OP4(=O)OCC(C)(C)CO4)=C[C@@H]2N(C)CC3)cc1OC	332

----------
# Assay type: in vitro ADME, mouse
# reported_conditions: prodrug remaining, 5 μM, 37° C., 0 min

record_smiles	measure_unit	Mouse Plasma Prodrug (%)
CCN(C)C(=O)OC1=C[C@@H]2N(C)CC[C@]2(c2ccc(OC)c(OC)c2)CC1	%	100.0
COc1ccc([C@@]23CCC(OC(=O)OC(C)(C)C)=C[C@@H]2N(C)CC3)cc1OC	%	100
COc1ccc([C@@]23CCC(OC(=O)N4CCN(C)CC4)=C[C@@H]2N(C)CC3)cc1OC	%	100
COc1ccc([C@@]23CCC(OP(=O)(OC(C)C)OC(C)C)=C[C@@H]2N(C)CC3)cc1OC	%	100
COc1ccc([C@@]23CCC(OP4(=O)OCC(C)(C)CO4)=C[C@@H]2N(C)CC3)cc1OC	%	100.0
COc1ccc([C@@]23CCC(OP(=O)(Oc4ccccc4)Oc4ccccc4)=C[C@@H]2N(C)CC3)cc1OC	%	100
COc1ccc([C@@]23CCC(OP(=O)(O)O)=C[C@@H]2N(C)CC3)cc1OC	%	100
COc1ccc([C@@]23CCC(OC(=O)N(C)C)=C[C@@H]2N(C)CC3)cc1OC	%	100.0
